# Tested on: MCF10A
# PROTOCOL_DETAILS: percent viability (nuclei count relative to siNT); higher = more viable cells
# CONDITION_SET: 20 nM; 72 h
// reported percent viability for each item listed
// return numeric value only (unit: %, not printed)

- MONOMER_SEQUENCE: "GGUGCAGUGCUGCAUCUCUGGU [hsa-miR-143-5p]"
  MEAS_VALUE: 89.5
- MONOMER_SEQUENCE: "ACUGGCUAGGGAAAAUGAUUGGAU [hsa-miR-664a-5p]"
  MEAS_VALUE: 47.9

Record AGGCUGGAGUGAGCGGAG [hsa-miR-4430] , field percent viability: 12.7

For this sequence ( UUCAGCAGGAACAGCU [hsa-miR-4291] ), measured percent viability is 45.7

Entry ACUCCAAGAAGAAUCUAGACAG [hsa-miR-5695] — recorded percent viability = 183

Record summary for UUAGUCCUGCCUGUAGGUUUA [hsa-miR-4540] : reported percent viability = 39.3

Given item CGAAAACAGCAAUUACCUUUGC [hsa-miR-570-3p] , the value recorded as its percent viability is 164
